- Target System: T1, HLA-A2 / homologous peptide IL20RB complex on T2 cells (human)
- T1 construct: whole, on cells; also called T2 cells supplemented with homologous peptide IL20RB
- Assay Remarks: flow cytometry on peptide-pulsed T2 cells, scFv 100 nM;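 also: scFv binding read as gMFI and normalized to the level of HLA/peptide complex displayed on T2 cells, with homologous 9-mer peptides used to probe specificity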
Property Name: standardized gMFI

Documented standardized gMFI of NYA-2044 (scFv, also called NYA-2044 tag adduct) scFv: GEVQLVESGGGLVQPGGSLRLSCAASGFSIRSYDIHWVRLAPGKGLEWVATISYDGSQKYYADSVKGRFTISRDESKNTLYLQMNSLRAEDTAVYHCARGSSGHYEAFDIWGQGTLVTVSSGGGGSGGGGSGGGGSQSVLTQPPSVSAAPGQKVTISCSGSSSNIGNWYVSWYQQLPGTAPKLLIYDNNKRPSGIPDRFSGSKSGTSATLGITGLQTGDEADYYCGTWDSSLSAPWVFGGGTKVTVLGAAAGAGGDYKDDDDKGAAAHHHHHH : 0.43
